Hey, just so you know, these numbers are from the supplement of paper PMC10567573.

Measured protein stability index by item
B1: ZNF24 (parent)
chain: YGETCFPKGRFERKRNPSRKKQHI

Variants of: B1
method_summary: protein stability index of a GFP-peptide fusion (GPS, HEK-293T) (PSI 1-6); higher = more stable;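 further: lentivirally expressed fusions sorted by FACS into six bins by GFP to DsRed ratio, PSI derived from sequencing read proportions per bin multiplied by bin number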
conditions_used: c terminus: a fixed tail appended
Enter a number only.

Solved entries (count: 2):
H23C 2.85
K21P 2.61

The variant listed as F11E has a reported protein stability index of 3.16

The variant listed as I24E has a reported protein stability index of 3.13

The variant listed as P7A has a reported protein stability index of 2.77

The variant listed as I24S has a reported protein stability index of 2.77

The variant listed as K8V has a reported protein stability index of 2.36

The variant listed as C5V has a reported protein stability index of 3.17

The variant listed as R15H has a reported protein stability index of 2.84

The variant listed as K14Y has a reported protein stability index of 2.89
